# assaySystem: hcGAS (Homo sapiens, UniProt Q8N884)
# Sequence (Q8N884 whole entry): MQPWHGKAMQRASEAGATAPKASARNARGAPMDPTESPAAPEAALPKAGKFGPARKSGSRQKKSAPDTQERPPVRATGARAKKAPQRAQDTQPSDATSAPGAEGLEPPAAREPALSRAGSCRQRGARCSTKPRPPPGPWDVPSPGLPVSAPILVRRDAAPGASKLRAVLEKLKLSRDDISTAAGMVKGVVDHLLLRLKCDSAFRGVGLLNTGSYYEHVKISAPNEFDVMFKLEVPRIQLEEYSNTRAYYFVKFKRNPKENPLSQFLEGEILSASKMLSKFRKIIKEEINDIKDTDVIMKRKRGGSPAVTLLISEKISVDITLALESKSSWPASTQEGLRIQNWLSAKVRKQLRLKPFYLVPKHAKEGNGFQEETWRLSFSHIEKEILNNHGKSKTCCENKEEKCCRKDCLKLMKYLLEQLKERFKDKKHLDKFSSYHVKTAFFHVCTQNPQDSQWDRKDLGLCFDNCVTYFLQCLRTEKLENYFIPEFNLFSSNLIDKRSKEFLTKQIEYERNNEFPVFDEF
# assayProcedure: hcGAS Kinase-Glo assay (ATP depletion)
# Type: biochemical
# protocolConditions: 40 nM hcGAS, 100 μM ATP, 100 μM GTP, 25 nM dsDNA, 3 h incubation
# Excerpt: cGAS catalyzes the cyclization of ATP and GTP to produce cGAMP, which is the activating ligand of STING. Human cGAS (hcGAS) inhibition can thus be quantified by measuring how much cGAMP is formed either indirectly, by monitoring ATP-depletion as in the hcGAS Kinase-Glo assay (as described below), or directly, such as using the hcGAS LCMS assay (as described below). (i) hcGAS Kinase-Glo Assay […]
pIC50: −log10 of the molar value.
assayMetric: pIC50

Before answering, review these 8 worked examples.
COC[C@H](Nc1cc(C(=O)Nc2nnc(-n3nccc3C)s2)oc(=O)c1OC)c1ccccc1 [Compound 114] :: > 8.00
COCCNc1cc(C(=O)Nc2nnc(-n3nccc3C(F)F)s2)oc(=O)c1OC [Compound 144] :: 7.52 to 8.00
COCCCNc1cc(C(=O)Nc2nnc(-n3nccc3C)s2)oc(=O)c1OC [Compound 32] :: 7.00 to 7.52
COc1c(NCC(C)(C)O)cc(C(=O)Nc2nnc(-n3nccc3C)s2)oc1=O [Compound 33] :: 7.52 to 8.00
COCCNc1cc(C(=O)Nc2nnc(-c3c(C)csc3C#N)s2)oc(=O)c1OC [Compound 137] :: ≤ 7.00
CCc1ccnn1-c1nnc(NC(=O)c2cc(NCCOC)c(OC)c(=O)o2)s1 [Compound 141] :: ≤ 7.00
COc1c(NC[C@H](C)OC)cc(C(=O)Nc2nnc(-n3nccc3C)s2)oc1=O [Compound 187] :: 7.52 to 8.00
COc1c(N[C@@H]2CC[C@@H]2O)cc(C(=O)Nc2nnc(-n3nccc3C)s2)oc1=O (racemic) [Rac-43] :: 7.52 to 8.00

Consider the compound COCCNc1cc(C(=O)Nc2nnc(-n3nccc3C)s2)oc(=O)c1OC [Compound 75] and give its measured pIC50.
7.00 to 7.52

Param item: COc1c(NC2COC2)cc(C(=O)Nc2nnc(-n3nccc3C)s2)oc1=O [Compound 104]
7.00 to 7.52

Param item: COc1c(N[C@H]2CC[C@@H](OC)C2)cc(C(=O)Nc2nnc(-n3nccc3C)s2)oc1=O (racemic) [Rac-108]
7.52 to 8.00

Param item: COc1c(NCC(F)F)cc(C(=O)Nc2nnc(-n3nccc3C)s2)oc1=O [Compound 89]
7.52 to 8.00

Param item: COC[C@@H]1CCN(c2cc(C(=O)Nc3nnc(-n4nccc4C)s3)oc(=O)c2OC)C1 [Compound 1]
7.52 to 8.00

Param item: COc1c(NC(C)C)cc(C(=O)Nc2nnc(-n3nccc3C)s2)oc1=O [Compound 179]
7.00 to 7.52

Param item: COCCNc1cc(C(=O)Nc2nnc(-n3nccc3Cl)s2)oc(=O)c1OC [Compound 148]
≤ 7.00

Param item: COc1c(N2CC[C@@H](CO)C2)cc(C(=O)Nc2nnc(-n3nccc3C)s2)oc1=O [Compound 88]
7.52 to 8.00

Param item: COc1c(NC23CC(CC#N)(C2)C3)cc(C(=O)Nc2nnc(-n3nccc3C)s2)oc1=O [Compound 116]
7.52 to 8.00

Param item: COc1c(NC23CC(CO)(C2)C3)cc(C(=O)Nc2nnc(-n3nccc3C)s2)oc1=O [Compound 218]
7.52 to 8.00

Param item: COC[C@@H]1CCCN1c1cc(C(=O)Nc2nnc(-n3nccc3C)s2)oc(=O)c1OC [Compound 39]
7.52 to 8.00

Param item: COCCNc1cc(C(=O)Nc2nnc(-c3cscc3Cl)s2)oc(=O)c1OC [Compound 136]
7.52 to 8.00

Param item: COc1c(N[C@@H]2CCC[C@@H]2O)cc(C(=O)Nc2nnc(-c3sccc3Cl)s2)oc1=O (racemic) [Rac-7]
> 8.00

Param item: COc1c(NC23CC(C(C)(C)O)(C2)C3)cc(C(=O)Nc2nnc(-n3nccc3C)s2)oc1=O [Compound 117]
7.52 to 8.00
